Reported pEC50 values are given for each entry in this list.
target: T1, Proleukin® (aldesleukin) (human, UniProt P60568 21-153, limits assumed); experiment: ELISA, coated Proleukin, serially diluted supernatant
T1 construct: Variant of human wt IL-2 with C145S (C125S on mature IL-2); also called IL-2 (Proleukin®); human IL-2 (Proleukin)
T1 sequence (P60568 other isoform, or with tags, fused parts or gaps limits assumed): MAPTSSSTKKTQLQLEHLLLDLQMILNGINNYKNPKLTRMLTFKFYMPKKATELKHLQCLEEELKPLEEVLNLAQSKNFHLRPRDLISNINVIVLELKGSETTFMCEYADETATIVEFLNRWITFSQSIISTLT
As a rule, pEC50 stands for the negative log10 of the concentration, concentration in M.

Example cases with answers are listed next.
[[record]]
binder = "Antibody No: 31 (antibody, human IgG1, kappa, N297A, V domains shown, VK WT; HEK293F supernatant) VH: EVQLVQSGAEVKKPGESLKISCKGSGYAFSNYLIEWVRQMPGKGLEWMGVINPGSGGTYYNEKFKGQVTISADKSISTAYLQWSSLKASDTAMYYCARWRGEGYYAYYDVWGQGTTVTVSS VL: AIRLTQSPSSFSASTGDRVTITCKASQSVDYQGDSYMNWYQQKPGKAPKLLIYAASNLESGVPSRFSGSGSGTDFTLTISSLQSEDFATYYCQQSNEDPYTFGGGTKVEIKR"
readout_number = 9.41

[[record]]
binder = "Antibody No: 24 (antibody, human IgG1, kappa, N297A, V domains shown, VK A50T; HEK293F supernatant) VH: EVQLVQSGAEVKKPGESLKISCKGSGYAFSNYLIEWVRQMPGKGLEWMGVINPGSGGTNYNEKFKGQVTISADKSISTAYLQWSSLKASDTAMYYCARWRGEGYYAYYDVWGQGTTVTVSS VL: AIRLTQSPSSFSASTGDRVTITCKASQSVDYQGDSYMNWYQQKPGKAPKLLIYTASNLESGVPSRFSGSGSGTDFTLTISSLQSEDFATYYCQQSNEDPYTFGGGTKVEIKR"
readout_number = 9.23

[[record]]
binder = "Antibody No: 11 (antibody, human IgG1, kappa, N297A, V domains shown, VH N58Y; VK WT; HEK293F supernatant) VH: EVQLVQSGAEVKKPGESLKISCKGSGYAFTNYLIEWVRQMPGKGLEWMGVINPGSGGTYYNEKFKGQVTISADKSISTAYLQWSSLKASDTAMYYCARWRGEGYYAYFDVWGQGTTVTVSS VL: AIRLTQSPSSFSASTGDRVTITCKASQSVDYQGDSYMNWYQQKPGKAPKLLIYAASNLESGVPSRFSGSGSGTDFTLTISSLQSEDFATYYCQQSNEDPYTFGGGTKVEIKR"
readout_number = 9.47

[[record]]
binder = "Antibody No: 29 (antibody, human IgG1, kappa, N297A, V domains shown, VH N58Y + T30S; VK A50T; HEK293F supernatant) VH: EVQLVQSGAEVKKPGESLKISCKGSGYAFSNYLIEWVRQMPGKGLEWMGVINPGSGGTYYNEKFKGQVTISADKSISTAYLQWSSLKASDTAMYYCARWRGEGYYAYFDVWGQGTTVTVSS VL: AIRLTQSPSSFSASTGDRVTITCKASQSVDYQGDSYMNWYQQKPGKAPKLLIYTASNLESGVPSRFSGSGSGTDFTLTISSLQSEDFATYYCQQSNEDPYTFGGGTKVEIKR"
readout_number = 9.62


Return value of pEC50 for input Antibody No: 28 (antibody, human IgG1, kappa, N297A, V domains shown, VH N58Y + T30S; VK A50S; HEK293F supernatant; 108930 is kept apart) VH: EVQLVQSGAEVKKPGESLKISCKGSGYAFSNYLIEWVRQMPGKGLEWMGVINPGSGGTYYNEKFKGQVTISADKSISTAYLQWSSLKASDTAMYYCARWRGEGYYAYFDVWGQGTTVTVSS VL: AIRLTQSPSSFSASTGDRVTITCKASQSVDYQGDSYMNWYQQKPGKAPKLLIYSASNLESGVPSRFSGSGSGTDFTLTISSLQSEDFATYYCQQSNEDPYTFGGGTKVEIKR , no commentary.
9.80
